System: Plasmodium falciparum
assay.method.text: Antimalarial activity against Plasmodium falciparum
Type: functional, organism-based
test.context: Plasmodium falciparum
List of pIC50 values.
Worth noting: pIC50 values are minus log10 of concentrations stated in mol/L.

Observe how each entry below is paired with its result.
molecule: CCCCCCCCCC1(OC)CCC(CC(=O)OC)OO1 (stereo not given)
pIC50: 6.85

molecule: CCCCCCCCC[C@]1(OC)CC[C@H](CC(=O)OC)OO1 (relative stereo)
pIC50: 6.59

molecule: CCCCCC1(OC)CCC(CC(=O)OC)OO1 (stereo in doubt; 5)
pIC50: 6.92

molecule: CCCCCCCCC[C@]1(OC)CC[C@@H](CC(=O)OC)OO1
pIC50: 6.77

molecule: CCCCC[C@]1(OC)CC[C@@H](CC(=O)OC)OO1
pIC50: 6.82

### Prompt Give the reported pIC50 for `CC/C=C/C=C/CC[C@]1(OC)CC[C@H]([C@@H](C)C(=O)OC)OO1` (system: Plasmodium falciparum).
### Response 6.92

### Prompt Give the reported pIC50 for CC/C=C/C=C/CC[C@]1(OC)CC[C@@H](C(C)C(=O)OC)OO1 (single isomer, unassigned) (system: Plasmodium falciparum).
### Response 6.82

### Prompt Give the reported pIC50 for `CCCCC[C@]1(OC)CC[C@H](CC(=O)OC)OO1` (system: Plasmodium falciparum).
### Response 6.82

---

assay.method.text: Selective toxicity index between parasite and cells of host-animals, human epidermoid carcinoma KB 3-1
Format: organism-based
test.context: KB 3-1 human epidermoid carcinoma cells
The label depends only on selectivity ratio: Met if it is at least 200, Not met if it is smaller.

molecule: CCCCCCCCC[C@]1(OC)CC[C@@H](CC(=O)OC)OO1
assigned.label: Not met
//
molecule: CCCCCC1(OC)CCC(CC(=O)OC)OO1 (stereo in doubt; 5)
assigned.label: Met
//
molecule: CCCCCCCCC[C@]1(OC)CC[C@H](CC(=O)OC)OO1 (relative stereo)
assigned.label: Not met
//
molecule: CCCCC[C@]1(OC)CC[C@H](CC(=O)OC)OO1
assigned.label: Not met
//
molecule: CC/C=C/C=C/CC[C@]1(OC)CC[C@H]([C@@H](C)C(=O)OC)OO1
assigned.label: Met
//
molecule: CCCCCCCCCC1(OC)CCC(CC(=O)OC)OO1 (centres undefined)
assigned.label: Not met
//
molecule: CC/C=C/C=C/CC[C@]1(OC)CC[C@@H](C(C)C(=O)OC)OO1 (single isomer, unassigned)
assigned.label: Not met
//
molecule: CCCCC[C@]1(OC)CC[C@@H](CC(=O)OC)OO1
assigned.label: Met

For the next question, use this molecule.
### Prompt Would you say `CCCCCCCCCCCCCCCC[C@@]1(OC)C=C[C@@H](CC(=O)OC)OO1` shows selectivity ratio at minimum 200?
### Response Not met
